biological target: mutant auxin receptor (TIR1 F79G) (Arabidopsis thaliana, UniProt Q570C0, F79G); construct: expressed in transfected cells; host or cells: Saccharomyces cerevisiae strain EGY48; assay: Evaluation of binding to auxin receptor (yeast two-hybrid assay), mutant TIR1 F79G; conditions: yeast EGY48, LacZ reporter, X-gal, 30° C. for 3 days; TIR1 F79G with AUX/IAA protein
Sequence (Q38822 1-93): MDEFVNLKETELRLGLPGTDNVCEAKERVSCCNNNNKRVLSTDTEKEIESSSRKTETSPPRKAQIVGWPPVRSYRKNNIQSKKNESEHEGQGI
Sequence (Q570C0 whole entry F79G): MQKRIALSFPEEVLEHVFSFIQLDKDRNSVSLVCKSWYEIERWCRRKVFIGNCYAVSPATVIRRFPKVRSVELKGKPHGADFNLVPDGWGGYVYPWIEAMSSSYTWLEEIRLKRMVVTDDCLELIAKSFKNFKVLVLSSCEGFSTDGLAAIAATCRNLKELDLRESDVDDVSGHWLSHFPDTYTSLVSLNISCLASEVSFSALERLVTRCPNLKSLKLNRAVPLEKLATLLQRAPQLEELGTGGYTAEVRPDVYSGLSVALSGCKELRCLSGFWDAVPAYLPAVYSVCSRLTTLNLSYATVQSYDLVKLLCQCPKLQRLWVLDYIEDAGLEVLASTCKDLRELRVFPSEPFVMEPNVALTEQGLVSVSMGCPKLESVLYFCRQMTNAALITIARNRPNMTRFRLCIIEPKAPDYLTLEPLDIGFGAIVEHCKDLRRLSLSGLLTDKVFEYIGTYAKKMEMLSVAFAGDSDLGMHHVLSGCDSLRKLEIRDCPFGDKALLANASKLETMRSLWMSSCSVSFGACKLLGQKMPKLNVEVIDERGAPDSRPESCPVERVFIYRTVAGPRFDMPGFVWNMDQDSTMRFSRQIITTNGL
mut TIR: minimum concentration of the test compound in which the well turns blue reference
Endpoint name: mut TIR: minimum concentration of the test compound in which the well turns blue (µM)

{"columns": ["Compound", "Numeric value"],
 "data": [
  ["O=C(O)Cc1c[nH]c2ccc(-c3ccc(F)c(Cl)c3)cc12", 1],
  ["O=C(O)Cc1c[nH]c2ccc(-c3ccccc3)cc12 [Example 42A, 5-(2-Phenyl)-indole-3-acetic acid]", 0.01],
  ["O=C(O)Cc1c[nH]c2ccc(-c3cc(Cl)ccc3Cl)cc12", 10],
  ["CCCCCCCOc1ccc2[nH]cc(CC(=O)O)c2c1", 10],
  ["Cc1cc(-c2ccc3[nH]cc(CC(=O)O)c3c2)ccc1F", 0.1],
  ["Cc1ccc(Cl)cc1-c1ccc2[nH]cc(CC(=O)O)c2c1", 10],
  ["O=C(O)Cc1c[nH]c2cc(-c3ccc4c(c3)OCO4)ccc12", 0.1],
  ["Cc1cccc(-c2ccc3c(CC(=O)O)c[nH]c3c2)c1", 0.1],
  ["O=C(O)Cc1c[nH]c2ccc(-c3cc4ccccc4s3)cc12", 0.01],
  ["O=C(O)Cc1c[nH]c2ccc(C34CC5CC(CC(C5)C3)C4)cc12", 0.001],
  ["Cc1ccc(C)c(-c2ccc3[nH]cc(CC(=O)O)c3c2)c1", 10],
  ["COc1cccc(-c2ccc3[nH]cc(CC(=O)O)c3c2)c1 [Example 27B, 5-(3-methoxyphenyl)-indole-3-acetic acid]", 1],
  ["CC(C)(C)c1ccc(-c2ccc3[nH]cc(CC(=O)O)c3c2)cc1", 10],
  ["CCCCOc1ccc2[nH]cc(CC(=O)O)c2c1 [RY-215, reference compound]", 0.1],
  ["CCOc1cccc(-c2ccc3[nH]cc(CC(=O)O)c3c2)c1", 10],
  ["Cc1cccc(-c2ccc3[nH]cc(CC(=O)O)c3c2)c1", 0.1],
  ["Cc1ccc(-c2ccc3[nH]cc(CC(=O)O)c3c2)cc1C", 0.1],
  ["O=C(O)Cc1c[nH]c2cc(-c3ccccc3-c3ccccc3)ccc12", 10]
]}

* * *

Molecular target: mutant auxin receptor (TIR1 F79G) (Arabidopsis thaliana, UniProt Q570C0, F79G)
Construct: expressed in transfected cells; host or cells: Saccharomyces cerevisiae strain EGY48
Test: Evaluation of binding to auxin receptor (yeast two-hybrid assay), mutant TIR1 F79G
Details: yeast EGY48, LacZ reporter, X-gal, 30° C. for 3 days; TIR1 F79G with AUX/IAA protein
Text: Test Example 1: Evaluation of Binding to Auxin Receptor (Yeast Two-Hybrid Assay Specifically, the inventors set up the assay in the following manner. […]
Endpoint name: mut TIR: minimum concentration of the test compound in which the well turns blue (µM)

{"columns": ["Compound", "Unit symbol", "Numeric value"],
 "data": [
  ["O=C(O)Cc1c[nH]c2ccc(-c3ccc4c(c3)OCO4)cc12 [MK-209]", "µM", 0.1],
  ["O=C(O)Cc1c[nH]c2ccc(C3CCCCC3)cc12 [Compound 15]", "µM", 0.001],
  ["O=C(O)Cc1c[nH]c2ccc(OCC3CCCCC3)cc12 [MK-333]", "µM", 0.1],
  ["Cc1cc(C)cc(-c2ccc3[nH]cc(CC(=O)O)c3c2)c1 [MK-379]", "µM", 1]
]}
